Reference source for all entries: patent US11274091B2

# target under test: human TRPC6 ion channel (Homo sapiens (Human), UniProt Q9Y210)
# Sequence (Q9Y210 whole entry): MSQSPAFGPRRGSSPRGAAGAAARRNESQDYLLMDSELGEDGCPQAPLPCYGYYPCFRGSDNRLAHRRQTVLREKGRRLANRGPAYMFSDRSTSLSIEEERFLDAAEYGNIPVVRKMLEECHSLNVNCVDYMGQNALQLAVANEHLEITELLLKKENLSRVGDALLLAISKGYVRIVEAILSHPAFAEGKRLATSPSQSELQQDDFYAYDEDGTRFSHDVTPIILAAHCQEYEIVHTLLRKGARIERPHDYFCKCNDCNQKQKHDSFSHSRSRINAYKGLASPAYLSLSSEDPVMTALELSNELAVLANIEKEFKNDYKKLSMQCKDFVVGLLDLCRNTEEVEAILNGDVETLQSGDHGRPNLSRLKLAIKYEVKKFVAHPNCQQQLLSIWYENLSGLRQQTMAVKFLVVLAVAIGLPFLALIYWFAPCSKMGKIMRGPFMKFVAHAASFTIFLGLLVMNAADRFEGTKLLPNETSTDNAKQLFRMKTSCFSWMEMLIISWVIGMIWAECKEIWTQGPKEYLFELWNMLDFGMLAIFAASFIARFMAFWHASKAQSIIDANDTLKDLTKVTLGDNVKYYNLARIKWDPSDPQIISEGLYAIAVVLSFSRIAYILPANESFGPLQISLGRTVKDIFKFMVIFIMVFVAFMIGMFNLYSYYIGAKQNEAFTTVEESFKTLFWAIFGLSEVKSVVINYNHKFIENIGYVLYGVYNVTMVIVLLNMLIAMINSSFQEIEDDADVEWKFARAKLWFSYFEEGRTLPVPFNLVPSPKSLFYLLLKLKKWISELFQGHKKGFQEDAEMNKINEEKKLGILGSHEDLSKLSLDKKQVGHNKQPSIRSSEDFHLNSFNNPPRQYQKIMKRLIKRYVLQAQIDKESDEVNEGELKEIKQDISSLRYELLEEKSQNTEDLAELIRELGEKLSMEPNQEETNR
# assay details: Inhibition of TRPC6 FLIPR Assay (membrane potential dye, OAG challenge)
# conditions: TRPC6-HEK293 cells, OAG at EC80; most potent isolated isomer; mean of minimum 2 experiments
pIC50: −log10 of the molar value.
Label MET for high-side pIC50 (at or above 8) and NOT MET for low-side pIC50 (below it).

# molecule, target under test, discrete label
measured = [
    ("N#Cc1ccc(OC2CC(c3ccc(F)cc3)CC2N2CC(N)CC(F)(F)C2)cc1 (stereo not drawn) [Example 18]", "human TRPC6 ion channel (Homo sapiens (Human), UniProt Q9Y210)", "NOT MET"),
    ("N#Cc1ccc(OC2CC(c3ccc(F)cc3)CC2N2CCCC(N)C2)cn1 (stereo not drawn) [Example 27]", "human TRPC6 ion channel (Homo sapiens (Human), UniProt Q9Y210)", "NOT MET"),
    ("N#Cc1cnn(C2CC(c3ccc(F)cc3)CC2N2CC(N)CC(F)C2)c1 (stereo not drawn) [Example 6]", "human TRPC6 ion channel (Homo sapiens (Human), UniProt Q9Y210)", "MET"),
    ("N#Cc1ccn(C2CC(c3ccc(F)cc3)CC2N2CCCC(N)C2)c1 (stereo not drawn) [Example 4]", "human TRPC6 ion channel (Homo sapiens (Human), UniProt Q9Y210)", "MET"),
    ("N#Cc1ccc(OC2CC(c3ccc(F)cc3)CC2N2CCC(F)(F)C(N)C2)cc1 (stereo not drawn) [Example 17]", "human TRPC6 ion channel (Homo sapiens (Human), UniProt Q9Y210)", "NOT MET"),
    ("N#Cc1ccc(OC2CC(c3ccc(F)c(O)c3)CC2N2CCCC(N)C2)cc1 (stereo not drawn) [Example 14]", "human TRPC6 ion channel (Homo sapiens (Human), UniProt Q9Y210)", "NOT MET"),
]
